# maps each entry to its selectivity ratio
assay: Selectivity index, ratio of CC50 for human MT4 cells to EC50 for wild type HIV-1 IIIB infected in human MT4 cellS; settings: MT4 cells
PARAMETER: selectivity ratio

[[record]]
given_smiles = "Cc1cc(-c2ccncc2)cc(C)c1Nc1nc(Nc2ccc(C#N)cc2)ncc1-c1cccs1"
observed_result = "> 24100"

[[record]]
given_smiles = "Cc1cc(-c2ccncc2)cc(C)c1Nc1nc(Nc2ccc(C#N)cc2)ncc1-c1ccsc1"
observed_result = "> 45200"

[[record]]
given_smiles = "N#Cc1ccc(Nc2ncc(-c3cncc(F)c3)c(Nc3c(F)cc(-c4ccncc4)cc3F)n2)cc1"
observed_result = 9400

[[record]]
given_smiles = "N#Cc1ccc(Nc2ncc(-c3ccncc3)c(Nc3c(F)cc(-c4ccncc4)cc3F)n2)cc1"
observed_result = "> 4360"

[[record]]
given_smiles = "Cc1cc(-c2ccncc2)cc(C)c1Nc1nc(Nc2ccc(C#N)cc2)ncc1-c1cncc(Cl)c1"
observed_result = "> 32800"

[[record]]
given_smiles = "N#Cc1ccc(Nc2ncc(-c3cccs3)c(Nc3c(F)cc(-c4ccncc4)cc3F)n2)cc1"
observed_result = 2170

[[record]]
given_smiles = "Cc1cc(-c2cnc(Nc3ccc(C#N)cc3)nc2Nc2c(F)cc(-c3ccncc3)cc2F)cnc1F"
observed_result = "> 9800"

[[record]]
given_smiles = "Cc1cc(-c2ccncc2)cc(C)c1Nc1nc(Nc2ccc(C#N)cc2)ncc1-c1ccc(N)nc1"
observed_result = 575

[[record]]
given_smiles = "N#Cc1ccc(Nc2ncc(-c3ccco3)c(Nc3c(F)cc(-c4ccncc4)cc3F)n2)cc1"
observed_result = "> 6300"


---

experiment: Selectivity index, ratio of CC50 for human MT4 cells to EC50 for wild type HIV-1 IIIB infected in human MT4 cellS; conditions: MT4 cells
# maps each entry to its selectivity ratio
PARAMETER: selectivity ratio

[[record]]
given_smiles = "N#Cc1ccc(Nc2ncc(-c3ccnc(Cl)c3)c(Nc3c(F)cc(-c4ccncc4)cc3F)n2)cc1"
parameter = "selectivity ratio"
readout_qualifier = "="
observed_result = 14100

[[record]]
given_smiles = "Cc1cc(-c2ccncc2)cc(C)c1Nc1nc(Nc2ccc(C#N)cc2)ncc1-c1ccncc1"
parameter = "selectivity ratio"
readout_qualifier = ">"
observed_result = 19100

[[record]]
given_smiles = "N#Cc1ccc(Nc2ncc(-c3cncc(Cl)c3)c(Nc3c(F)cc(-c4ccncc4)cc3F)n2)cc1"
parameter = "selectivity ratio"
readout_qualifier = "="
observed_result = 9340


---

assay: Metabolic stability in dog liver microsomes assessed as half-life at 0.1 uM preincubated for 10 mins followed by NADPH addition and measured upto 60 mins by LC-MS/MS analysis; type: ADME, Canis lupus familiaris, Microsome; details: time < 70 min
PARAMETER: half-life at 0.1 µM (h)

[[record]]
compound = "Cc1cc(-c2ccncc2)cc(C)c1Nc1nc(Nc2ccc(C#N)cc2)ncc1-c1cn[nH]c1"
observed_result = 0.98

[[record]]
compound = "Cc1cc(C#N)cc(C)c1Oc1nc(Nc2ccc(C#N)cc2)nc(N)c1Br [ETRAVIRINE]"
observed_result = 2.53

[[record]]
compound = "Cc1cc(/C=C/C#N)cc(C)c1Nc1ccnc(Nc2ccc(C#N)cc2)n1 [RILPIVIRINE]"
observed_result = 1.32


---

assay: Cytotoxicity against human MT4 cells assessed as reduction in cell viability measured after 5 days by MTT assay; conditions: MT4 cells
PARAMETER: CC50 at 120 h

[[record]]
compound = "N#Cc1ccc(Nc2ncc(-c3cncc(N)c3)c(Nc3c(F)cc(-c4ccncc4)cc3F)n2)cc1"
parameter = "CC50 at 120 h"
observed_result = "167 µM"

[[record]]
compound = "Cc1cc(-c2ccncc2)cc(C)c1Nc1nc(Nc2ccc(C#N)cc2)ncc1-c1cncc(F)c1"
parameter = "CC50 at 120 h"
observed_result = "> 257 µM"

[[record]]
compound = "Cc1cc(-c2ccncc2)cc(C)c1Nc1nc(Nc2ccc(C#N)cc2)ncc1-c1ccc(C(F)(F)F)nc1"
parameter = "CC50 at 120 h"
observed_result = "> 3720 µM"

[[record]]
compound = "Cc1cc(-c2cnc(Nc3ccc(C#N)cc3)nc2Nc2c(C)cc(-c3ccncc3)cc2C)cc(C)n1"
parameter = "CC50 at 120 h"
observed_result = "36.1 µM"

[[record]]
compound = "Cc1cc(-c2ccncc2)cc(C)c1Nc1nc(Nc2ccc(C#N)cc2)ncc1-c1cncc(Cl)c1"
parameter = "CC50 at 120 h"
observed_result = "> 248 µM"

[[record]]
compound = "Cc1cn([C@H]2C[C@H](N=[N+]=[N-])[C@@H](CO)O2)c(=O)[nH]c1=O [ZIDOVUDINE]"
parameter = "CC50 at 120 h"
observed_result = "> 248 µM"

[[record]]
compound = "Cc1cc(-c2cnc(Nc3ccc(C#N)cc3)nc2Nc2c(F)cc(-c3ccncc3)cc2F)cnc1Cl"
parameter = "CC50 at 120 h"
observed_result = "> 238 µM"

[[record]]
compound = "O=C1Nc2ccc(Cl)cc2[C@@](C#CC2CC2)(C(F)(F)F)O1 [EFAVIRENZ]"
parameter = "CC50 at 120 h"
observed_result = "> 7.49 µM"

